Source: patent US9708336B2

biological target: IMP-1 (Serratia marcescens, UniProt P52699); assay: biochemical; assay type: biochemical; settings: IMP-1 enzyme, CCF2-FA fluorescence assay; read-out: IMP-1 IC50
Sequence (P52699 whole entry, looked up): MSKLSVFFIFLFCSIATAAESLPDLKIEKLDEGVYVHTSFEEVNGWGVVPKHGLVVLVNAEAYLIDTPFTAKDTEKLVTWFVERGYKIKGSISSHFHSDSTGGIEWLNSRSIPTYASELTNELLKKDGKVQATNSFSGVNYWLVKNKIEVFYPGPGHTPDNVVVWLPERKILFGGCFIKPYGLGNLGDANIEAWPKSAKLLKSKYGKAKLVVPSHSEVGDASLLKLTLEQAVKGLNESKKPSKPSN
MEASUREMENT_LABEL: IC50 (µM)
Answer in µM, number only, no unit symbol.

[ask] Could you share which IC50 value was measured for CN(CC(=O)O)Cc1ccc(-c2cccc(S(N)(=O)=O)c2-c2nnn[nH]2)cc1 ?
[reply] 0.1

[ask] If you can, please state the reported IC50 value of NS(=O)(=O)c1c(CC2CNC2)ccc(-c2ccc(C3CCNCC3)cc2)c1-c1nn[nH]n1 .
[reply] 0.0297

[ask] What value of IC50 has been recorded for this entry: Cc1ccc(-c2cc(-c3cnn(C)c3)cc(S(N)(=O)=O)c2-c2nn[nH]n2)cc1
[reply] 0.0986

----------
Measured IC50, listed per entry.
molecular target: IMP-1 (Serratia marcescens); experiment: biochemical; type: biochemical; details: fluorescence assay with CCF2-FA substrate; read-out: IMP-1 IC50
Mention the unit after the number when you answer.

COMPOUND	IC50
NS(=O)(=O)c1c(C(F)(F)F)ccc(N2CCCC3(CCNCC3)C2)c1-c1nnn[nH]1	0.114 µM
NC1CCCC12CCN(c1ccc(C(F)(F)F)c(S(N)(=O)=O)c1-c1nnn[nH]1)CC2 (stereo not drawn)	0.104 µM

Consider the record given below.
[ask] IC50 for CC(=O)Nc1ccc(-c2ccnc(S(N)(=O)=O)c2-c2nn[nH]n2)cc1 ?
[reply] 0.0984 µM

----------
tested on: Serratia marcescens expressing IMP-1 (CL5741); assay: Antibiotic potentiation activity: synergistic concentration (MITC95) with imipenem, OD600 growth; type: cell-based; settings: concentration giving 95% inhibition of bacterial growth
Please mark YES if the recorded Serratia marcescens expressing IMP-1 (CL5741) MITC95 is equal to or greater than 20 µM, and NO if it falls below.

Here are 6 compounds together with their reported answers.
NS(=O)(=O)c1cccc(-c2cn(S(=O)(=O)c3ccccc3)c3ncccc23)c1-c1nn[nH]n1 NO
NS(=O)(=O)c1cccc(-c2ccc3c(c2)CCCO3)c1-c1nn[nH]n1 YES
CN(C)CCNC(=O)c1ccc(-c2cccc(S(N)(=O)=O)c2-c2nn[nH]n2)cc1 NO
NS(=O)(=O)c1cccc(-c2cccc(-n3nccn3)c2)c1-c1nn[nH]n1 NO
CCN(CC)C(=O)c1ccc(-c2cccc(S(N)(=O)=O)c2-c2nn[nH]n2)cc1 NO
NS(=O)(=O)c1cccc(-c2cscn2)c1-c1nn[nH]n1 YES

[ask] State whether the measured Serratia marcescens expressing IMP-1 (CL5741) MITC95 reaches 20 µM, counting equality as reaching it, for N#Cc1cncc(-c2cccc(S(N)(=O)=O)c2-c2nnn[nH]2)c1
[reply] YES

[ask] Check if Serratia marcescens expressing IMP-1 (CL5741) MITC95 >= 20 µM (inclusive). Item: NS(=O)(=O)c1cccc(COc2ccccc2)c1-c1nnn[nH]1
[reply] NO

[ask] Does the compound N#CC1(c2ccc(-c3cccc(S(N)(=O)=O)c3-c3nnn[nH]3)cc2)CCOCC1 have recorded Serratia marcescens expressing IMP-1 (CL5741) MITC95 that is 20 µM or more?
[reply] NO

[ask] Is the recorded value of Serratia marcescens expressing IMP-1 (CL5741) MITC95 equal to or greater than 20 µM for this compound? NS(=O)(=O)c1cccc(C2CCCC2)c1-c1nnn[nH]1
[reply] NO

[ask] In plain terms: is recorded Serratia marcescens expressing IMP-1 (CL5741) MITC95 at least 20 µM for Cc1cccc(S(N)(=O)=O)c1-c1nnn[nH]1 ?
[reply] NO

----------
target: VIM-1 (Pseudomonas aeruginosa (strain ATCC 15692 / DSM 22644 / CIP 104116 / JCM 14847 / LMG 12228 / 1C / PRS 101 / PAO1), UniProt A0A0F7KYQ8); assay: Enzyme activity: determination of IC50, fluorescence assay with CCF2-FA substrate (VIM-1); format: biochemical; conditions: VIM-1 IC50, VIM-1 enzyme, CCF2-FA fluorescence assay
MEASUREMENT_LABEL: IC50 (nM)
Dear colleague, please return just the value in nM, with no unit written.

Some solved cases for reference:
COMPOUND	NUMBER
Nc1ncc(-c2ccc(C(F)(F)F)c(S(N)(=O)=O)c2-c2nnn[nH]2)cn1	1.92
NS(=O)(=O)c1nccc(N2CCC(c3nnc4ccccn34)CC2)c1-c1nnn[nH]1	774
NS(=O)(=O)c1cccc(-c2ccc(C(O)CO)cc2)c1-c1nn[nH]n1 (stereo not shown)	199
NCCCc1ccc(-c2cccc(S(N)(=O)=O)c2-c2nnn[nH]2)cc1	103
N=C(N)NC1CCC(CCc2ccc(-c3ccc(C4CCN(C(=N)N)CC4)cc3)c(-c3nn[nH]n3)c2S(N)(=O)=O)CC1 (stereo not shown)	13.4

[ask] # input compound: Nc1nccc2ccc(-c3cccc(S(N)(=O)=O)c3-c3nnn[nH]3)cc12 ; wanted: its IC50
[reply] 18.4

----------
target: NDM-1 (Klebsiella pneumoniae, UniProt C7C422); assay: biochemical; assay type: biochemical; settings: fluorescence assay with CCF2-FA substrate; read-out: NDM-1 IC50
Sequence (C7C422 whole entry, looked up, species assumed): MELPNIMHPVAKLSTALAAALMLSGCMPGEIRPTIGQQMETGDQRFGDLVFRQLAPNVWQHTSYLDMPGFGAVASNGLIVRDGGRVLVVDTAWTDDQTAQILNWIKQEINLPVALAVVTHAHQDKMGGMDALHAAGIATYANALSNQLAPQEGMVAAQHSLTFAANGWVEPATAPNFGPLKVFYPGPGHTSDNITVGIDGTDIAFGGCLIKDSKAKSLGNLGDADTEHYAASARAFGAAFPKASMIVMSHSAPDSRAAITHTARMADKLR
MEASUREMENT_LABEL: pIC50
Give only the number. pIC50 is defined as minus log10 of concentration in molar units.

MOLECULE	TESTED_SYSTEM	NUMBER
Cc1nccn1-c1nc(-c2cccc(S(N)(=O)=O)c2-c2nn[nH]n2)cs1 [Example 102]	NDM-1 (Klebsiella pneumoniae, UniProt C7C422)	6.89

[ask] # lookup: pIC50 of NS(=O)(=O)c1cccc(-c2cscn2)c1-c1nn[nH]n1 [Example 45]
[reply] 7.07

[ask] For the molecule NS(=O)(=O)c1cccc(CCc2ccccn2)c1-c1nnn[nH]1 [Example 144] , what pIC50 is on record?
[reply] 6.92

----------
biological target: NDM-1 (Klebsiella pneumoniae); assay: biochemical; type: biochemical; conditions: fluorescence assay with CCF2-FA substrate; read-out: NDM-1 IC50
Binning of IC50 into classes: LOW = under 3 nM, MEDIUM = from 3 nM up to 10 nM, HIGH = 10 nM and over

For orientation, consider the following solved cases.
COMPOUND	CLASS
NS(=O)(=O)c1c(C(F)(F)F)ccc(-c2cnc3ccccn23)c1-c1nnn[nH]1 [Example 748]	LOW
NC1CCN(c2ccc(C(F)(F)F)c(S(N)(=O)=O)c2-c2nnn[nH]2)CC1 [Example 778]	HIGH
NS(=O)(=O)c1cccc(C#CCN2CCC(=O)CC2)c1-c1nn[nH]n1 [Example 146]	HIGH
COc1cccc(-c2cccc(S(N)(=O)=O)c2-c2nn[nH]n2)n1 [Example 37]	HIGH
NS(=O)(=O)c1cccc(-c2cncc(F)c2)c1-c1nn[nH]n1 [Example 83]	MEDIUM
NCCC1CCN(c2ccc(C(F)(F)F)c(S(N)(=O)=O)c2-c2nnn[nH]2)CC1 [Example 755]	HIGH

[ask] Band assignment needed for NS(=O)(=O)c1nccc(-c2ccc3[nH]ncc3c2)c1-c1nn[nH]n1 [Example 199] please.
[reply] HIGH

[ask] Quick check: band for NS(=O)(=O)c1cccc(-c2ccc(C3CCNC3=O)cc2)c1-c1nnn[nH]1 (stereo not drawn) [Example 27]
[reply] LOW

----------
target: VIM-1 (Pseudomonas aeruginosa (strain ATCC 15692 / DSM 22644 / CIP 104116 / JCM 14847 / LMG 12228 / 1C / PRS 101 / PAO1)); experiment: Enzyme activity: determination of IC50, fluorescence assay with CCF2-FA substrate (VIM-1); type: biochemical; settings: fluorescence assay with CCF2-FA substrate; read-out: VIM-1 IC50
This section presents compounds with their documented pIC50 values.
Lab note: report pIC50 as minus log10 of the concentration in molar units, number only.

// known answers, use as guide
COMPOUND	pIC50
NC1CCCC(N2CC(c3ccc(-c4ccc(C(F)(F)F)c(S(N)(=O)=O)c4-c4nnn[nH]4)cc3)C2)C1 (centres unmarked)	7.57
NS(=O)(=O)c1cccc(-c2ccc(C3CCNC3=O)cc2)c1-c1nnn[nH]1 (centres unmarked)	7.11
NC(=O)c1cccc(-c2ccnc(S(N)(=O)=O)c2-c2nn[nH]n2)c1	6.62
CNC1CC(N2CC(c3ccc(-c4ccc(C(F)(F)F)c(S(N)(=O)=O)c4-c4nnn[nH]4)cc3)C2)C1 (centres unmarked)	7.74
NS(=O)(=O)c1c(C(F)(F)F)ccc(N2CCC3(CCNCC3)CC2)c1-c1nnn[nH]1	8.72
NS(=O)(=O)c1cccc(-c2cnc(NC3CCCC3)nc2)c1-c1nnn[nH]1	6.59

[ask] Entry under review: NS(=O)(=O)c1nccc(-c2ccccc2)c1-c1nn[nH]n1 . Reported pIC50?
[reply] 6.70

[ask] # input compound: NC1Cc2cccc(-c3ccc(C(F)(F)F)c(S(N)(=O)=O)c3-c3nnn[nH]3)c2C1 (centres unmarked) ; wanted: its pIC50
[reply] 8.62

[ask] Sample NS(=O)(=O)c1cccc(-c2cnc(N3CCCCC3)nc2)c1-c1nnn[nH]1 — what was its pIC50?
[reply] 6.60

[ask] Requested read-out: pIC50. Entry: NS(=O)(=O)c1nccc(-c2ccc3ncccc3c2)c1-c1nn[nH]n1
[reply] 7.45

[ask] Which pIC50 value is on record for NS(=O)(=O)c1nccc(-c2ccncc2)c1-c1nnn[nH]1 ?
[reply] 6.04
